Tested on: NCI-H1618 multicellular tumor spheroid viability
Assay: Anticancer human tumor NCI-H1618 cell line growth inhibition; active = viability on the fitted dose curve at most 10% of control; inactive = the rest;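 note: spheroids exposed to agents for 7 days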
Settings: second compound 0.0003 µM; first compound 3 µM
Method: Multicellular complex tumor spheroid response to DNA repair inhibitors in combination with DNA-damaging drugs This study explores the anticancer activities of DNA-damaging drugs and inhibitors of DNA damage repair, both as single agents and in combinations. […] Twenty-six patient-derived or established malignant cell lines were evaluated representing sarcoma, melanoma, small cell lung cancer (SCLC), non-small cell lung cancer (NSCLC), as well as bladder, ovarian and pancreatic cancers. […]
Reply using exactly one outcome from YES for active, NO for inactive

Query: Dear colleague, could you share the recorded outcome for Cc1sc2c(c1C)C(c1ccc(Cl)cc1)=NC(CC(=O)Nc1ccc(O)cc1)c1nnc(C)n1-2 (centres undefined) + COc1cc2c(cc1O)CCNC21CSC2c3c(OC(C)=O)c(C)c4c(c3C(COC1=O)N1C(O)C3Cc5cc(C)c(OC)c(O)c5C(C21)N3C)OCO4 when you have a moment?
Reply: YES

Query: Dear colleague, could you share the recorded outcome for CNCc1ccc(-c2cc(-c3nc(-c4ccc(S(=O)(=O)C(C)C)cc4)cnc3N)on2)cc1 + COc1cc2c(cc1O)CCNC21CSC2c3c(OC(C)=O)c(C)c4c(c3C(COC1=O)N1C(O)C3Cc5cc(C)c(OC)c(O)c5C(C21)N3C)OCO4 when you have a moment?
Reply: NO

Query: Dear colleague, could you share the recorded outcome for Cn1ncnc1[C@H]1c2n[nH]c(=O)c3cc(F)cc(c23)N[C@@H]1c1ccc(F)cc1 + COc1cc2c(cc1O)CCNC21CSC2c3c(OC(C)=O)c(C)c4c(c3C(COC1=O)N1C(O)C3Cc5cc(C)c(OC)c(O)c5C(C21)N3C)OCO4 when you have a moment?
Reply: YES

Query: Dear colleague, could you share the recorded outcome for O=C(c1cc(Cc2n[nH]c(=O)c3ccccc23)ccc1F)N1CCN(C(=O)C2CC2)CC1 + COc1cc2c(cc1O)CCNC21CSC2c3c(OC(C)=O)c(C)c4c(c3C(COC1=O)N1C(O)C3Cc5cc(C)c(OC)c(O)c5C(C21)N3C)OCO4 when you have a moment?
Reply: NO
